From: the supplement of paper PMC9170038

- Test system: K4 kissing-loop RNA reporter;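 note: bound reporter read as fluorescence of individual clusters on recovered sequencing chips by microscopy, with normalized cluster intensities fitted with a binding model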
- measurement notes: apparent KD of K4 kissing-loop reporter; higher = weaker reporter binding
- applied conditions: Eterna round: R107; input ligand: theophylline 20 uM
Please go through the items and note down their apparent KD of K4 kissing-loop reporter.
Write it as a number; the unit nM goes unstated.

Looking up UGUCAUUGGUCGGCCGCCACUUCGUAUGAAGUGAUGUUUUGUAGAUUGUGUUGAAAGGUAUGGUGAAGGACCGGGACCGAUGACU [FiskerMod 22 - Jieux - Same State - Tryptophan B] , I see its apparent KD of K4 kissing-loop reporter listed as 203

Looking up UGUCAUUGGUCUGAUACCAGCUUGAUCGGAAAACGAUCUGCUGGAGUGAUGUUCCAAUAAAGCCCUUGGCAGCAGACCGAUGACU [TheoBS 7 #SwitchBubble #StaticStem] , I see its apparent KD of K4 kissing-loop reporter listed as 961

Looking up GUAUCGCUAGGAGGAUAUUUCAAUUUGACUCUUUGAGUUUUUACGGAGUGAUGUUCCGUUUUACGGAAAGAAGGCCUAGUGAUAC [FMN B 15] , I see its apparent KD of K4 kissing-loop reporter listed as 159

Looking up CGUUUAUAGCAGGAUACCAGUACGGAUAAAGUACGUUAAUAGUAGAGUGAUGUUCUAAAGUACCCUUGGCAGCUUAGAGUGAGUG [ExTheophylB.O] , I see its apparent KD of K4 kissing-loop reporter listed as 144

Looking up ACGAAUCCAGCGGCCGCCACUAUUCGAUGAGUGAUGUUUAGGAGUAGAUCAUACCGCCGUGGUAAUAGGACCGGGCUCUUUGUAG [theeternabot_exclusion_KL_Trp_B_36] , I see its apparent KD of K4 kissing-loop reporter listed as 193

Looking up AAAAUAAAAGCAGUCAUCGGAGUGAUGUUCCGAGGACCGGUACGGCCGCCACUCGACCAGACAAAGUCUGGAUGGCGAGACUGCA [#SwitchBubble 18 #K4Early] , I see its apparent KD of K4 kissing-loop reporter listed as 91.4

Looking up AAGUGUGUGGCGGCCGCCACUAGAAUCCAGUGAUGUUGGAGUUAUCAUAUAAAUGAUAAUCAACAUAGGACCGGGCCAUAUAGAA [Same State - Tryptophan B (Freestyle 7)] , I see its apparent KD of K4 kissing-loop reporter listed as 745

Looking up UGAACCCGGUCGGCCGCCACUCUGAGAACCAUCGCCCUACGUGCAGUGAUGUUGUACCUAAUGAGGAGGACCGGGACUGGGCGGC [theeternabot_sameState_KL_Trp_B_36] , I see its apparent KD of K4 kissing-loop reporter listed as 204

Looking up GUGGAAUUAUGAAAGUGGUUUUAUAAGGAAGGAGCGGCCGAAAGGCCAGGUAGGUCGCCUAUUGACAGUGAUGUUGUUAUAUGGA [#13] , I see its apparent KD of K4 kissing-loop reporter listed as 168

Looking up UACUAUAGUGAUGUUAUAGAUAAACCAGAUACCAGUGUAACAUAACACCCUUGGCAGCUGAUGAGGGAAGUUAUCAAAAGAUAAC [AstroSTH-A#10designED4.80] , I see its apparent KD of K4 kissing-loop reporter listed as 115

Looking up GCAGUGAUGUUGCUGAUGUACAGUGGGAUACGAGGACCGGUACGGCCGCCACUCGUACAGAACUUAUUAAUACAUCGAUAAGUGA [XIV] , I see its apparent KD of K4 kissing-loop reporter listed as 643

Looking up "GCUAGGAUGGCAGGAUAUAGUUCGUGAGUGAUGUUCAAAGAACUAAGAGGGACACCUCAUUCUAAACUAGAAGGGCCAUCCUAGC" , I see its apparent KD of K4 kissing-loop reporter listed as 421

Looking up AUUAAUAACAGAGGAUAUGCAUUAUUAUUAUUUUUAAAUAAUAAAUGCAGUGAUGUUGCAUAUUAAGCAGAAGGCUGAUUUAUUU [JR_SSFMNB_Sub011] , I see its apparent KD of K4 kissing-loop reporter listed as 439

Looking up CGCAGUGAUGUUGCGAGUUCAUUCAGGGAAGGAGCGCCACAGAUGGCAGGUAGGUCGCCCACGCAGUGAUGUUGUGUAUUCGGGU [Exclusion Arginine A GF 2] , I see its apparent KD of K4 kissing-loop reporter listed as 170

Looking up AUUAUAAAGUCGGCCGCCACUGAGAGUAGUGAUGUUACUCUUUUCCUUUAGAUAUUAUAUUUUAUCAGGACCGGGACAUCAGAUU [JR_ExcTryptoB_Sub020] , I see its apparent KD of K4 kissing-loop reporter listed as 180

====

Please go through the items and note down their apparent KD of MS2 coat protein.
- Test system: MS2 coat protein
- measurement notes: apparent KD of MS2 coat protein; designed switch direction (-1 OFF switch, 1 ON switch): 1; higher = weaker reporter binding
- applied conditions: Eterna round: R95; input ligand: microRNA oligo, concentration not stated
Write it as a number; the unit nM goes unstated.

Record CGACUAAAGUCACAGGAUAUACGCCGUACUACAUGAGGAUCACCCAUGUUCGGGACAGUCGCGGUGUAGAAGGGUGUGGGUCAAC [Errabeed] (puzzle: Same State 2) / MS2 coat protein, apparent KD of MS2 coat protein recorded as 31.2

Record GGCAUGCGGCGUACCGUAUGCUGGUAUGUACAUGAGGAUCACCCAUGUCAUGUACAGGCUUGUUGCUCGUCUUAUUG [JL-shm-2.41 JL mod] (puzzle: Sensor for hsa-mir-208a) / MS2 coat protein, apparent KD of MS2 coat protein recorded as 34.3

Record GGAGAGAGAGCACAGGAUAUGCGAGGAGAGACAUGAGGAUCACCCAUGUAAGAGAGAGAGGAGAGGUAGAAGGGUGAGAGAGAGG [Altered State 2-21 - Jieux - Same State 2] (puzzle: Same State 2) / MS2 coat protein, apparent KD of MS2 coat protein recorded as 62.7

Record CAGUGCUGUUGAGAGGAUAUGCGGCGACGGACAUGAGGAUCACCCAUGUUAGCGACAGCGUUGCGGCAGAAGGCUCUGCCCGCUG [Soteed Omei mod 50] (puzzle: Same State 2) / MS2 coat protein, apparent KD of MS2 coat protein recorded as 15.3

Record GAGAAGAGGGACAAGGAUAUGUCAGGAGAGACAUGAGGAUCACCCAUGUAGAGGUUGGAGGAGAGACAGAAGGUGUCGAGAGCGA [JR_SS2_Sub014] (puzzle: Same State 2) / MS2 coat protein, apparent KD of MS2 coat protein recorded as 143

Record ACAAGACAUGAGGAUCACCCAUGUAUAAAUUACACAGGAUAUCGGUGGGCCGCGCCUACACGAGAAGGGUGACUUC [Gere] (puzzle: Same State 1) / MS2 coat protein, apparent KD of MS2 coat protein recorded as 33.4

Record AAAAUACAUGAGGAUCACCCAUGUAGAAACUACACAGGAUAUCGGACGGCUGUAGCCGAACGAGAAGGGUGAACCC [Uszadi] (puzzle: Same State 1) / MS2 coat protein, apparent KD of MS2 coat protein recorded as 228

Record CCGUAGAUGGGACAGGAUAUGACUGUCGUCACAUGAGGAUCACCCAUGUCCCGGCAAUGCCACCGUUAGAAGGGUCCCGUCUCGG [Tiquiser] (puzzle: Same State 2) / MS2 coat protein, apparent KD of MS2 coat protein recorded as 12.2

Record GGAGAACAUGAGGAUCACCCAUGUAAGAGAGUUGUAGGAUAUGUGAGGAGCAGAGGAUGAACAGAAGGACAUGGAG [JR_SS!_Sub070] (puzzle: Same State 1) / MS2 coat protein, apparent KD of MS2 coat protein recorded as 49.3

Record GUGGCACAUGAGGAUCACCCAUGUGGGUAGAACAUAGGAUAUCACCAACAAAAUACCCGGUGAGAAGGAUGAUGCC [Esanesdi] (puzzle: Same State 1) / MS2 coat protein, apparent KD of MS2 coat protein recorded as 121

Record ACGCGGGUAUCACAGGAUAUACUCAUAACUACAUGAGGAUCACCCAUGUGGCGGAAUUCCGGUGCGUAGAAGGGUGAUGGACCGC [Artece] (puzzle: Same State 2) / MS2 coat protein, apparent KD of MS2 coat protein recorded as 28.5

Record AGGGCCGCGGCACAGGAUAUGCACAGGUUCACAUGAGGAUCACCCAUGUGCUCUAGAUAACUUAAGCAGAAGGGUGUCAUGGUAA [Biarrace] (puzzle: Same State 2) / MS2 coat protein, apparent KD of MS2 coat protein recorded as 12

Record AGUCCAGCCUGAGCUGGACAAAAGCAUGUACAUGAGGAUCACCCAUGUUCAUGUACAAGCUUUUUGCUCGUCUUUAA [salish99_208a_r3_096x] (puzzle: Sensor for hsa-mir-208a) / MS2 coat protein, apparent KD of MS2 coat protein recorded as 14.5

Record GUUAUACAUGAGGAUCACCCAUGUCAAUGUAGUCGAGGAUAUGGGCAGCUGUGAGGCGUACUAGAAGGCGAAGAGG [JL-ss1-3.10 ViennaUCT mod] (puzzle: Same State 1) / MS2 coat protein, apparent KD of MS2 coat protein recorded as 198

Record GCUCUACAUGAGGAUCACCCAUGUCCAUCCGCACGAGGAUAUGCAUGGGCGAAAGCUGGUGCAGAAGGCGUGGGAC [Tr3Pin] (puzzle: Same State 1) / MS2 coat protein, apparent KD of MS2 coat protein recorded as 409
